Test: self-splicing fitness, log relative to wild type (ln ratio); higher = more splicing; Tetrahymena group I intron in knt gene, E. coli kanamycin selection, DiMSum; sequences stand for … in CUCUCU…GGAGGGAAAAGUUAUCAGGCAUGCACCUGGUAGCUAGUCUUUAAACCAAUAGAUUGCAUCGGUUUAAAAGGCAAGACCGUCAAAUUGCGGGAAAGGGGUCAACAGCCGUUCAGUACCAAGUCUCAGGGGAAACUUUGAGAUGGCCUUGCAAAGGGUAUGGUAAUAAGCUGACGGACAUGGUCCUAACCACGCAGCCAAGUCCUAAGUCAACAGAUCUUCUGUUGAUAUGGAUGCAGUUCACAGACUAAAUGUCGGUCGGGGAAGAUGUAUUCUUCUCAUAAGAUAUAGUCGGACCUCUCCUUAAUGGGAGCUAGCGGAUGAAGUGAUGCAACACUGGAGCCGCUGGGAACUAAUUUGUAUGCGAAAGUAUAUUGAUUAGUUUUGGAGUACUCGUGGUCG;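 note: selection with 25 µg/mL kanamycin versus none on LB agar overnight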
Conditions: 37 °C
Parameter self-splicing fitness (ln): see the listing below.
test-readout: self-splicing fitness (ln)

query-sequence: GCGGAGCAAUAUUACGUUGA
result-number: -2.31
--
query-sequence: AGACAGCAAUAUUACGGGUG
result-number: -2.37
--
query-sequence: AGAAAGCAAUAUUACGAUCG
result-number: -0.026
--
query-sequence: CCGUAGCAAUAUUACGCGGG
result-number: -3.61
--
query-sequence: CGAAAGCAAUAUUACGUGAA
result-number: -1.17
--
query-sequence: UCCGAGCAAUAUUACGAGAA
result-number: -2.27
--
query-sequence: GAAGAGCAAUAUUACGGCCA
result-number: -1.27
--
query-sequence: GAUAAGCAAUAUUACGGAGC
result-number: -1.76
--
query-sequence: CCGAAGCAAUAUUACGAAGU
result-number: -2.8
--
query-sequence: UGAAAGCAAUAUUACGUGGA
result-number: -2.69
--
query-sequence: AGGAAGCAAUAUUACGUGUU
result-number: -0.935
--
query-sequence: UCUAAGCAAUAUUACGAAGC
result-number: -1.8
--
query-sequence: CUCAAGCAAUAUUACGGUAG
result-number: -0.579
--
query-sequence: UUCGAGCAAUAUUACGCCUG
result-number: -2.64
--
query-sequence: CGUGAGCAAUAUUACGAGCG
result-number: -2.52
--
query-sequence: UAGCAGCAAUAUUACGAGUC
result-number: -2.22

---

Parameter self-splicing fitness (ln): see the listing below.
Experiment: self-splicing fitness, log relative to wild type (ln ratio); higher = more splicing; Tetrahymena group I intron in knt gene, E. coli kanamycin selection, DiMSum; sequences stand for … in CUCUCU…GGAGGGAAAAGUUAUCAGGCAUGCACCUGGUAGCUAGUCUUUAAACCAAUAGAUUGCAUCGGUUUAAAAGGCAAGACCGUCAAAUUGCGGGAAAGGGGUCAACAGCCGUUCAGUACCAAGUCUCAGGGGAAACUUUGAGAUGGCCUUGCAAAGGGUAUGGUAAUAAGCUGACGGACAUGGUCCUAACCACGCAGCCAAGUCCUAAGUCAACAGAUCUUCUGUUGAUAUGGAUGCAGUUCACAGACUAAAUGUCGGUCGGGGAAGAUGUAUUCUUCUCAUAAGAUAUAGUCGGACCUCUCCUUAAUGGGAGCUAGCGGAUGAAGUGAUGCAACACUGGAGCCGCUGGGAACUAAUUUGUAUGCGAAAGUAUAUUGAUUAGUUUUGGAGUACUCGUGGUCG
Settings: 30 °C
test-readout: self-splicing fitness (ln)

query-sequence: CCUAAGCAAUAUUACGCUCA
result-number: -3.32
--
query-sequence: CCGGAGCAAUAUUACGCUAA
result-number: -2.65
--
query-sequence: UGCGAGCAAUAUUACGCUUU
result-number: -2.38
--
query-sequence: CCCAAGCAAUAUUACGUUAA
result-number: -3.68
--
query-sequence: CCGAAGCAAUAUUACGGCAC
result-number: -4.15
--
query-sequence: UGCCAGCAAUAUUACGCGCU
result-number: -1.3
--
query-sequence: CCCGAGCAAUAUUACGAAAA
result-number: -2.67
--
query-sequence: UAUGAGCAAUAUUACGAUGU
result-number: -4.02
--
query-sequence: UGAGAGCAAUAUUACGUCAU
result-number: -1.71
--
query-sequence: CAUUAGCAAUAUUACGGAUG
result-number: -3.67
--
query-sequence: UACGAGCAAUAUUACGAAAA
result-number: -3.03
--
query-sequence: ACAUAGCAAUAUUACGAAGU
result-number: -2.67
--
query-sequence: CCCAAGCAAUAUUACGUUAC
result-number: -4.13
--
query-sequence: GGGAAGCAAUAUUACGGCGU
result-number: -0.0838
--
query-sequence: CUCAAGCAAUAUUACGGCGA
result-number: -2.71
--
query-sequence: CUUAAGCAAUAUUACGCAGG
result-number: -3.05
--
query-sequence: GUACAGCAAUAUUACGAGUG
result-number: -3.17
--
query-sequence: UGAGAGCAAUAUUACGUACG
result-number: -2.03
--
query-sequence: CAGCAGCAAUAUUACGGAUU
result-number: -3
--
query-sequence: CGCUAGCAAUAUUACGGCUU
result-number: -0.961
--
query-sequence: GCCGAGCAAUAUUACGACAA
result-number: -3.38
--
query-sequence: AGAAAGCAAUAUUACGUGAC
result-number: -2.53
--
query-sequence: CGGCAGCAAUAUUACGUAUU
result-number: -3.6
--
query-sequence: AUUAAGCAAUAUUACGGCGU
result-number: -0.179
--
query-sequence: UCGAAGCAAUAUUACGUUCC
result-number: -2.35
--
query-sequence: GGAGAGCAAUAUUACGAAGA
result-number: -3.05
--
query-sequence: UUGGAGCAAUAUUACGCCUA
result-number: -1.39
--
query-sequence: GACUAGCAAUAUUACGGGAU
result-number: -1.59
--
query-sequence: GGGAAGCAAUAUUACGAAUC
result-number: -0.774
--
query-sequence: GGGAAGCAAUAUUACGAAGC
result-number: -2.84
--
query-sequence: UUGUAGCAAUAUUACGAGAU
result-number: -2.41
--
query-sequence: UCGCAGCAAUAUUACGUCAG
result-number: -1.59
--
query-sequence: UGCUAGCAAUAUUACGUUUA
result-number: -3.11
--
query-sequence: GUCGAGCAAUAUUACGCGUA
result-number: -1.26
--
query-sequence: CACCAGCAAUAUUACGAUGG
result-number: -1.58
--
query-sequence: UGAUAGCAAUAUUACGCUAU
result-number: -3.98
--
query-sequence: GCCCAGCAAUAUUACGAGAA
result-number: -0.685
--
query-sequence: GUUAAGCAAUAUUACGCCGU
result-number: -1.42
--
query-sequence: GAGGAGCAAUAUUACGAUGA
result-number: -2.31
--
query-sequence: GGGGAGCAAUAUUACGCAAG
result-number: -3.34
--
query-sequence: AACGAGCAAUAUUACGACUC
result-number: -1.14
--
query-sequence: GACAAGCAAUAUUACGAGUG
result-number: -1.55
--
query-sequence: CAGCAGCAAUAUUACGGUAU
result-number: -3.51
--
query-sequence: CCUAAGCAAUAUUACGGACU
result-number: -3.46
--
query-sequence: UUCCAGCAAUAUUACGUAGG
result-number: -4.29
--
query-sequence: GUUGAGCAAUAUUACGGCUC
result-number: -2.04
--
query-sequence: AGUUAGCAAUAUUACGAGAC
result-number: -3.11
--
query-sequence: GUCAAGCAAUAUUACGGUCG
result-number: -3.23
--
query-sequence: UUAGAGCAAUAUUACGAGCC
result-number: -0.789
--
query-sequence: GGUAAGCAAUAUUACGUUGA
result-number: -1.76
--
query-sequence: CGUAAGCAAUAUUACGUUGU
result-number: -3.29
--
query-sequence: GAGGAGCAAUAUUACGGUAA
result-number: -3.65
--
query-sequence: AGGAAGCAAUAUUACGAUUC
result-number: -1.41
--
query-sequence: GUUAAGCAAUAUUACGGAGG
result-number: -4
--
query-sequence: UCCCAGCAAUAUUACGGGCA
result-number: -0.512
--
query-sequence: ACCUAGCAAUAUUACGGGAG
result-number: -1.93
--
query-sequence: UGCCAGCAAUAUUACGAGCU
result-number: -1.17
--
query-sequence: UCCCAGCAAUAUUACGCCCA
result-number: -1.5
--
query-sequence: UACGAGCAAUAUUACGAUUU
result-number: -2.88
